Molecular target: T1, E. coli-expressed recombinant cynomolgus IL-13 (cynomolgus, UniProt Q5I6E4 21-132 (Macaca thibetana entry))
T1 construct: also called cyno IL13 (CA); cIL-13
T1 chain: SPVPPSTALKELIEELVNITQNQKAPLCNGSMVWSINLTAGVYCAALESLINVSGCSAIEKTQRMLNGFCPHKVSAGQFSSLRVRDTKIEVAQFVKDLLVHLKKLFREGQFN
Experiment: BIAcore analysis 1, antibody captured, IL-13 in solution
parameter: pKd
Answers are plain numbers, as −log10 of the molar value.

Worked cases, answers included:
binder="chimaeric 6A1 (antibody, human IgG1, V domains shown, Parent murine 6A1 V regions on human IgG1/k wild type C regions, expressed in CHO cells; also called 6A1c; 6A1 chimaeric antibody) VH: EIQLQQSVAELVRPGASVRLSCTASGFYIKDTYMHWVIQRPEQGLEWIGTIDPANGNTKYVPKFQGKATITADTSSNTAYLRLSSLTSEDTAIYYCARSIYDDYHYDDYYAMDYWGQGTSVTVSS VL: DVLMTQTPLSLPVSLGDQASISCRSSQNIVHINGNTYLEWYLQKPGQSPKLLIYKISDRFSGVPDRFSGSGSGTDFTLKISRVEAEDLGVYYCFQGSHVPWTFGGGTKLEIK" readoutnumber=10.26
binder="L2+A1 (antibody, human IgG1, kappa, V domains shown, Humanised 6A1, VH construct A1 and VL construct L2; also called A1L2) VH: QVQLVQSGAEVKKPGSSVKVSCKASGFYIKDTYMHWVRQAPGQGLEWMGTIDPANGNTKYVPKFQGRVTITADESTSTAYMELSSLRSEDTAVYYCARSIYDDYHYDDYYAMDYWGQGTLVTVSS VL: DIVMTQSPLSLPVTPGEPASISCRSSQNIVHINGNTYLEWYLQKPGQSPRLLIYKISDRFSGVPDRFSGSGSGTDFTLKISRVEADDVGVYYCFQGSHVPWTFGQGTKLEIKR" readoutnumber=10.01
binder="monoclonal antibody 6A1 (antibody, IgG1, V domains shown, also called 6A1 parental mAb; parental mouse mAb 6A1) VH: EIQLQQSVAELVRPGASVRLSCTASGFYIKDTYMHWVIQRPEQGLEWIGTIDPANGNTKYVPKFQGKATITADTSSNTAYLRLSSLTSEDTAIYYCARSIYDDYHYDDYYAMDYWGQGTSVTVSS VL: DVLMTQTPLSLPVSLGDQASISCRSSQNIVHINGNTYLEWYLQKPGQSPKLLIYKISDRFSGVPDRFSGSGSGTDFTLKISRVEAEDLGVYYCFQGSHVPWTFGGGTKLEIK" readoutnumber=10.21

Prompt: Looking for the measured pKd of L1+A1 (antibody, human IgG1, kappa, V domains shown, Humanised 6A1, VH construct A1 and VL construct L1, human gamma1 wild type / kappa constant regions; also called A1L1; humanised anti-IL-13 mAb L1+A1) VH: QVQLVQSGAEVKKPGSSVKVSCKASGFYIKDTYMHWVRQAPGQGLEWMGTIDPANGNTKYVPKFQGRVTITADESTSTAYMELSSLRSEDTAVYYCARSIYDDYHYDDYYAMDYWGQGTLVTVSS VL: DIVMTQSPLSLPVTPGEPASISCRSSQNIVHINGNTYLEWYLQKPGQSPRLLIYKISDRFSGVPDRFSGSGSGTDFTLKISRVEADDVGIYYCFQGSHVPWTFGQGTKLEIKR , can you help?
Response: 10.46
